Assay Target: HLA-A*02:01
Run Description: IEDB peptide-MHC binding, purified MHC/competitive/radioactivity; filed as Kd, often an IC50 or EC50 that approximates it; bounds were set here for any values at or beyond the usual limits of such assays
Measurement Setup: source organism: Hepatitis B virus subtype adyw
// values below are reported Kd

Look over these answered cases.
Sequence Input | Assay Target | Kd
PSDFFPSV | HLA-A*02:01 | ≥ 50 µM
FLPSDFFP | HLA-A*02:01 | ≥ 50 µM

Q: Would you mind telling me what Kd value was observed for `SFLPSDFFPSV` ?
Result: ≥ 50 µM

###

Assay Target: HLA-A*02:01
Run Description: IEDB peptide-MHC binding, purified MHC/competitive/radioactivity; filed as Kd, often an IC50 or EC50 that approximates it; bounds were set here for any values at or beyond the usual limits of such assays
Measurement Setup: source organism: Human immunodeficiency virus type 1 (NDK ISOLATE)
Quantity Name: Kd

Q: What value of Kd has been recorded for this entry: `AVDLSHFLK`
Result: ≥ 5 µM

###

Assay Target: HLA-A*03:01
Run Description: IEDB peptide-MHC binding, purified MHC/competitive/radioactivity; filed as Kd, often an IC50 or EC50 that approximates it; bounds were set here for any values at or beyond the usual limits of such assays
Measurement Setup: source organism: Human immunodeficiency virus type 1 (NDK ISOLATE)
pKd: −log10 of the molar value.
Quantity Name: pKd

Q: Requested read-out: pKd. Entry: `ILKEPVHGV`
Result: ≤ 5.30

###

Assay Target: HLA-A*03:01
Run Description: IEDB peptide-MHC binding, purified MHC/competitive/radioactivity; filed as Kd, often an IC50 or EC50 that approximates it; bounds were set here for any values at or beyond the usual limits of such assays
Measurement Setup: source organism: Plasmodium falciparum
Quantity Name: Kd

Q: Reported Kd, sequence `KPIVQYDNF` : ____
Result: ≥ 5 µM

###

Assay Target: HLA-A*02:01
Run Description: IEDB peptide-MHC binding, purified MHC/competitive/radioactivity; filed as Kd, often an IC50 or EC50 that approximates it; bounds were set here for any values at or beyond the usual limits of such assays
Measurement Setup: source organism: Plasmodium falciparum
Quantity Name: Kd

Q: Given the entry `KPIVQYDNF` , report its measured Kd.
Result: ≥ 5 µM

###

Assay Target: HLA-A*01:01
Run Description: IEDB peptide-MHC binding, purified MHC/competitive/radioactivity; filed as Kd, often an IC50 or EC50 that approximates it; bounds were set here for any values at or beyond the usual limits of such assays
Measurement Setup: source organism: Plasmodium falciparum
Quantity Name: Kd

Q: Any idea what its Kd is? The sequence is `KPIVQYDNF`
Result: ≥ 5 µM

###

Assay Target: HLA-A*01:01
Run Description: IEDB peptide-MHC binding, purified MHC/competitive/radioactivity; filed as Kd, often an IC50 or EC50 that approximates it; bounds were set here for any values at or beyond the usual limits of such assays
Measurement Setup: source organism: Homo sapiens
Quantity Name: Kd

Solved entries (count: 2):
Sequence Input | Assay Target | Quantity Name | Reading
RRYQKSTEL | HLA-A*01:01 | Kd | ≥ 5 µM
LLGRNSFEV | HLA-A*01:01 | Kd | ≥ 5 µM

Continue with the sequence presented below.
Q: Would you mind telling me what Kd value was observed for `KRYEGLTQR` ?
Result: ≥ 5 µM

###

Assay Target: HLA-A*24:02
Run Description: IEDB peptide-MHC binding, purified MHC/competitive/radioactivity; filed as Kd, often an IC50 or EC50 that approximates it; bounds were set here for any values at or beyond the usual limits of such assays
Measurement Setup: source organism: Plasmodium falciparum
Quantity Name: Kd

Q: Kd for `KPIVQYDNF` ?
Result: ≥ 5 µM

###

Measured Kd values are reported for all entries that follow.
Assay Target: HLA-A*01:01
Run Description: IEDB peptide-MHC binding, purified MHC/competitive/radioactivity; filed as Kd, often an IC50 or EC50 that approximates it; bounds were set here for any values at or beyond the usual limits of such assays
Measurement Setup: source organism: Human immunodeficiency virus type 1 (NDK ISOLATE)

Sequence Input | Assay Target | Kd
AVDLSHFLK | HLA-A*01:01 | ≥ 5 µM

Attention now turns to another entry.
Q: Quick check: Kd of `ILKEPVHGV` ?
Result: ≥ 5 µM

###

Assay Target: HLA-A*03:01
Run Description: IEDB peptide-MHC binding, purified MHC/competitive/radioactivity; bounds were set here for any values at or beyond the usual limits of such assays
Measurement Setup: source organism: Human immunodeficiency virus type 1 (NDK ISOLATE)
Quantity Name: pIC50
The read-out pIC50 is expressed as -log10 of concentration in moles per litre.

Q: Request the reported pIC50 associated with `AVDLSHFLK`
Result: 6.83
